- experimental details: Cytotoxicity against MDCK cells assessed as alteration in cell morphology after 3 days by microscopic method
- Assay type: cell-based, Canis lupus familiaris
- test conditions: dog
# key: entry, value: MCC at 72 h

# annotated cases, reported MCC at 72 h shown
molecule: CCCSC1=C(SCCC)C(=O)N(Cc2cn(C3C(=O)N[C@@H]4Cc5ccc(c(Cl)c5)Oc5cc6cc(c5O)Oc5ccc(cc5Cl)[C@@H](O[C@@H]5O[C@H](CO)[C@@H](O)[C@H](O)[C@H]5NC(C)=O)[C@H]5NC(=O)[C@H](NC(O)[C@@H]6NC(=O)[C@@H](NC4=O)c4cc(O)cc(c4)Oc4cc3ccc4O)c3ccc(O)c(c3)-c3c(O)cc(O)cc3[C@H](C(=O)O)NC5=O)nn2)C1=O (stereo partly drawn)
MCC at 72 h: 20 µM
//
molecule: CCCCSC1=C(SCCCC)C(=O)N(Cc2cn(C3C(=O)N[C@@H]4Cc5ccc(c(Cl)c5)Oc5cc6cc(c5O)Oc5ccc(cc5Cl)[C@@H](O[C@@H]5O[C@H](CO)[C@@H](O)[C@H](O)[C@H]5NC(C)=O)[C@H]5NC(=O)[C@H](NC(O)[C@@H]6NC(=O)[C@@H](NC4=O)c4cc(O)cc(c4)Oc4cc3ccc4O)c3ccc(O)c(c3)-c3c(O)cc(O)cc3[C@H](C(=O)O)NC5=O)nn2)C1=O (stereo partly drawn)
MCC at 72 h: 20 µM

Ask | Quick one: MCC at 72 h for CCCCCCSC1=C(SCCCCCC)C(=O)N(Cc2cn(C3C(=O)N[C@@H]4Cc5ccc(c(Cl)c5)Oc5cc6cc(c5O)Oc5ccc(cc5Cl)[C@@H](O[C@@H]5O[C@H](CO)[C@@H](O)[C@H](O)[C@H]5NC(C)=O)[C@H]5NC(=O)[C@H](NC(O)[C@@H]6NC(=O)[C@@H](NC4=O)c4cc(O)cc(c4)Oc4cc3ccc4O)c3ccc(O)c(c3)-c3c(O)cc(O)cc3[C@H](C(=O)O)NC5=O)nn2)C1=O (stereo partly drawn) ?
Reply | ≥ 4 µM

----------
- experimental details: Cytotoxicity against MDCK cells assessed as alteration in cell morphology after 3 days by microscopic method
- Assay type: cell-based, Canis lupus familiaris
- test conditions: dog
reported metric: MCC at 72 h

Ask | Quick one: MCC at 72 h for CCCCCCOCc1cn([C@H]2C(=O)N[C@@H]3Cc4ccc(c(Cl)c4)Oc4cc5cc(c4O)Oc4ccc(cc4Cl)[C@@H](O[C@@H]4O[C@H](CO)[C@@H](O)[C@H](O)[C@H]4NC(C)=O)[C@H]4NC(=O)[C@H](NC(O)[C@@H]5NC(=O)[C@@H](NC3=O)c3cc(O)cc(c3)Oc3cc2ccc3O)c2ccc(O)c(c2)-c2c(O)cc(O)cc2[C@H](C(=O)O)NC4=O)nn1 (stereo partly drawn) ?
Reply | ≥ 20 µM

Ask | Input CCCCCCCCCCCCCCCCOCc1cn([C@H]2C(=O)N[C@@H]3Cc4ccc(c(Cl)c4)Oc4cc5cc(c4O)Oc4ccc(cc4Cl)[C@@H](O[C@@H]4O[C@H](CO)[C@@H](O)[C@H](O)[C@H]4NC(C)=O)[C@H]4NC(=O)[C@H](NC(O)[C@@H]5NC(=O)[C@@H](NC3=O)c3cc(O)cc(c3)Oc3cc2ccc3O)c2ccc(O)c(c2)-c2c(O)cc(O)cc2[C@H](C(=O)O)NC4=O)nn1 (stereo partly drawn)
Reply | ≥ 4 µM

Ask | Input CCCCCCCCCCOCc1cn(CCOCCOCCOCCOCc2cn([C@H]3C(=O)N[C@@H]4Cc5ccc(c(Cl)c5)Oc5cc6cc(c5O)Oc5ccc(cc5Cl)[C@@H](O[C@@H]5O[C@H](CO)[C@@H](O)[C@H](O)[C@H]5NC(C)=O)[C@H]5NC(=O)[C@H](NC(O)[C@@H]6NC(=O)[C@@H](NC4=O)c4cc(O)cc(c4)Oc4cc3ccc4O)c3ccc(O)c(c3)-c3c(O)cc(O)cc3[C@H](C(=O)O)NC5=O)nn2)nn1 (stereo partly drawn)
Reply | ≥ 20 µM
